- METHOD SUMMARY: chemical genetic growth profiling, strain panel (AID 1159580);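 also: tested at 20 µM; growth read once vehicle control cultures reached saturation at 30 °C; 1 = growth at the plate median or of vehicle wells; lower values mean less growth of the strain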
- COND: S. cerevisiae deletion strains, growth OD, locus YDR069C, strain doa4
In all, about 5,500 compounds went through this assay and about 2,000 (36%) were called active. Not shown: some 18% with an inconclusive outcome. Rule as the data show it: active = normalized growth mostly below about 0.91 (no sharp cut-off); inconclusive = no clear call, values can overlap the other calls; inactive = mostly above about 0.92. The list shows a part of the results.
Classes used: yes (1) = active, no (0) = inactive

* COc1ccc(-c2c(O)c3c(OC)c4c(cc3oc2=O)OC(C)(C)C=C4)cc1 | no (0)
* CC1CC(OC(=O)c2ccccc2O)CC(C)(C)C1 (centres undefined) | no (0)
* COc1ccccc1OCC(O)COC(N)=O (centres undefined) | no (0)
* Oc1cccc2cccnc12 | yes (1)
* COC1=CC23CCCN2CCc2cc4c(cc2C3C1O)OCO4 (centres undefined) | no (0)
* C[N+]12CCC(CC1)C(OC(=O)C(O)(c1ccccc1)c1ccccc1)C2 (centres undefined) | no (0)
* CCC1(C2=NCCN2)Cc2ccccc2O1 (centres undefined) | no (0)
* O=C(/C=C/c1ccc(O)cc1)c1ccccc1O | yes (1)
* O=C1C=CC(=O)c2ccccc21 | yes (1)
* CC(C)c1cc2c(c(O)c1O)[C@@]1(C(=O)O)CCCC(C)(C)C1CC2 (some centres undefined) | no (0)
* O=C(O)[C@H]1/C(=C/CO)O[C@@H]2CC(=O)N21 | no (0)
* O=C(/C=C/c1ccccc1)c1ccc(O)cc1O | yes (1)
* CC(=O)CCCCn1c(=O)c2c(ncn2C)n(C)c1=O | no (0)
* O=C(N[C@@H](CO)[C@H](O)c1ccc([N+](=O)[O-])cc1)C(Cl)Cl | no (0)
* COC(=O)CC1C(C)(C(=O)c2ccoc2)CC2OCC34C(CC(=O)OC)C5(C)CC36OC3(C)OC1(C(OC(C)=O)C6(OC(C)=O)C5OC(=O)C(C)C)C24O3 (centres undefined) | no (0)
* O=C1c2cccc(O)c2C(=O)c2c(O)cccc21 | yes (1)
* CN1CCC[C@H]1c1cccnc1 | no (0)
* O=C1NS(=O)(=O)c2ccccc21 | no (0)
* O=c1c(O)cccc2cc(O)c(O)c(O)c12 | yes (1)
* COc1ccc([C@@H](C)C(=O)c2ccc(O)cc2O)cc1 | no (0)
* CCCCCCCCCCCCCCCC(=O)OC[C@H](NC(=O)C(Cl)Cl)[C@H](O)c1ccc([N+](=O)[O-])cc1 | no (0)
* Cn1c(=O)[nH]c2nc[nH]c2c1=O | no (0)
* O=C(O)CCC(=O)OC[C@@H](NC(=O)C(Cl)Cl)[C@H](O)c1ccc([N+](=O)[O-])cc1 | no (0)
* CC(=O)OCC1=C(C(=O)O)N2C(=O)[C@@H](NC(=O)CSc3ccncc3)[C@H]2SC1 | no (0)
* CC(=O)NC1C(O)OC(COS(=O)(=O)O)C(OC2OC(C(=O)O)C(OC3OC(CO)C(OC4OC(C(=O)O)C(O)C(O)C4OS(=O)(=O)O)C(OS(=O)(=O)O)C3NS(=O)(=O)O)C(O)C2OS(=O)(=O)O)C1O (centres undefined) | no (0)
* CO/N=C(/C(=O)NC1C(=O)N2C(C(=O)OCOC(=O)C(C)(C)C)=C(/C=C\c3scnc3C)CSC12)c1csc(N)n1 (centres undefined) | no (0)
* Cn1c(=O)c2c(ncn2C)n(C)c1=O | no (0)
* CC[C@H]1OC(=O)[C@H](C)[C@@H](O[C@H]2C[C@@](C)(OC)[C@@H](O)[C@H](C)O2)[C@H](C)[C@@H](O[C@@H]2O[C@H](C)C[C@H](N(C)C)[C@H]2O)[C@](C)(O)C[C@@H](C)/C(=N/OCOCCOC)[C@H](C)[C@@H](O)[C@]1(C)O | no (0)
* O=C1c2ccccc2C(=O)c2ccccc21 | no (0)
* Cn1c(=O)[nH]c2ncn(C)c2c1=O | no (0)
* NC(Cc1ccc(Cl)cc1)C(=O)O (centres undefined) | no (0)
* O=C1C=C(O)c2ccccc2C1=O | no (0)
* CNC(=O)Oc1ccccc1OC(C)C | no (0)
* COCC1=C(C(=O)OC(C)OC(=O)OC(C)C)N2C(=O)[C@@H](NC(=O)/C(=N\OC)c3csc(N)n3)[C@H]2SC1 (some centres undefined) | no (0)

---

We begin with a simple list: items and their reported normalized growth.
- METHOD SUMMARY: chemical genetic growth profiling, strain panel (AID 1159580)
- COND: S. cerevisiae deletion strains, growth OD, locus YDL005C, strain med2, active compounds read low
The whole screen tested about 5,500 compounds, of which about 2,000 (36%) were called active. Another 18% or so got no clear call; they are omitted. The list shows a part of the results.
PARAMETER: normalized growth

• C=CC[C@@H]1/C=C(\C)C[C@H](C)C[C@H](OC)[C@H]2O[C@@](O)(C(=O)C(=O)N3CCCC[C@H]3C(=O)O[C@H](/C(C)=C/[C@@H]3CC[C@@H](O)[C@H](OC)C3)[C@H](C)[C@@H](O)CC1=O)[C@H](C)C[C@@H]2OC = 1.04
• CON = 0.994
• COC1=CC23CCCN2CCc2cc4c(cc2C3C1O)OCO4 (configuration not stated) = 1.02
• COc1cc(O)c2c(c1)C(=O)c1cc(C)cc(O)c1C2=O = 0.971
• CC(C)[C@@H]1CC[C@@H](C)C[C@H]1OC(=O)c1ccccc1 = 0.991
• CN1CCCCC1c1ccc(-c2cccnc2)nc1 (configuration not stated) = 0.964
• CC1=C(C(=O)O)N2C(=O)[C@@H](NC(=O)[C@@H](N)c3ccc(O)cc3)[C@H]2SC1 = 1.03

---

- METHOD SUMMARY: chemical genetic growth profiling, strain panel (AID 1159580);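 also: tested at 20 µM; growth read once vehicle control cultures reached saturation at 30 °C; 1 = growth at the plate median or of vehicle wells; lower values mean less growth of the strain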
- COND: S. cerevisiae deletion strains, growth OD, locus YNL006W, strain LST8, active compounds read low
The whole screen tested about 5,500 compounds, of which about 2,000 (36%) were called active. Not shown: some 18% with an inconclusive outcome. This is one part of the list.
PARAMETER: normalized growth

* COC(=S)Nc1cc(Cl)cc(Cl)c1 | 0.936
* Cc1csc2ncnc(N3CCN(C(=O)Nc4ccc(SC(F)(F)F)cc4)CC3)c12 | 0.997
* CCOC(=O)C(O)(c1ccc(NC(=O)c2ccc(Cl)c(Cl)c2)cc1)C(F)(F)F (stereo unspecified) | 0.986
* Cc1csc2ncnc(N3CCN(C(=S)Nc4ccc(C(F)(F)F)cc4)CC3)c12 | 0.989
* O=[N+]([O-])c1ccc(Sc2ccccc2)cc1O | 0.925
* FC(F)(F)c1c2c(nc3cc(-c4ccco4)nn13)CCC2 | 0.97

---

- METHOD SUMMARY: chemical genetic growth profiling, strain panel (AID 1159580);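 also: tested at 20 µM; growth read once vehicle control cultures reached saturation at 30 °C; 1 = growth at the plate median or of vehicle wells; lower values mean less growth of the strain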
- COND: S. cerevisiae deletion strains, growth OD, locus YNL298W, strain CLA4 (second series), active compounds read low
Hit rate of the full screen: of about 5,500 compounds, about 2,000 (36%) were called active. Not shown: some 18% with an inconclusive outcome. The list shows a part of the results.
PARAMETER: normalized growth

• O=C(NNC(=S)Nc1cccc(Cl)c1)c1cccnc1 = 0.98
• COc1ccc(CCNC(=O)c2ccccc2Cl)cc1OC = 1.01
• Cc1cc(S(=O)(=O)NCCNc2nccc(C(F)(F)F)n2)c(C)cc1Cl = 0.982
• CCOC(=O)c1ccc(N2CC3CCCCN3C2c2ccc(Cl)c(Cl)c2)cc1 (centres undefined) = 1.02

---

- METHOD SUMMARY: chemical genetic growth profiling, strain panel (AID 1159580);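 also: tested at 20 µM; growth read once vehicle control cultures reached saturation at 30 °C; 1 = growth at the plate median or of vehicle wells; lower values mean less growth of the strain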
- COND: S. cerevisiae deletion strains, growth OD, locus YNL322C, strain KRE1
About 2,000 (36%) of roughly 5,500 compounds were called active. Roughly 18% stayed inconclusive and do not appear here. Rule as the data show it: active = normalized growth mostly below about 0.91 (no sharp cut-off); inconclusive = no clear call, values can overlap the other calls; inactive = mostly above about 0.92. The list shows a part of the results.
Classes used: Y = active, N = inactive

- Cc1cc(Oc2c([N+](=O)[O-])cc(C(F)(F)F)cc2[N+](=O)[O-])c2c(Cl)ccc(C)c2n1: N
- COc1c([N+](=O)[O-])cc(C(F)(F)F)cc1[N+](=O)[O-]: N
- COc1ccc(-c2c(O)c3c(OC)c4c(cc3oc2=O)OC(C)(C)C=C4)cc1: N
- CCCCC#Cc1ccc(C(=O)NNC(=O)Nc2cc(Cl)cc(Cl)c2)o1: N
- CC(C)OC(=O)Nc1cccc(Cl)c1: N
- Cn1c(Sc2ccc(C(F)(F)F)cc2[N+](=O)[O-])nnc1C(F)(F)F: N
- Cc1c(C)c(C)c(S(=O)(=O)Nc2ccccc2N)c(C)c1C: N
- COc1cc(OC)c2c(OC)c(-c3ccc4c(c3)OCO4)c(=O)oc2c1: N
- Cc1cc(C(F)(F)F)n2nc(-c3ccc(C(C)(C)C)cc3)cc2n1: N
- CCCCN(CC)c1c([N+](=O)[O-])cc(C(F)(F)F)cc1[N+](=O)[O-]: N
- NC(CCP(=O)(O)O)C(=O)O (stereo unspecified): N
- O=C(O)c1cccc([N+](=O)[O-])c1C(=O)Nc1ccc(F)cc1: N
- CC1=C(C(=O)O)N2C(=O)[C@@H](NC(=O)[C@@H](N)c3ccc(O)cc3)[C@H]2SC1: N
- O=[N+]([O-])c1cc(C(F)(F)F)ccc1Oc1cc(C(F)(F)F)cc(C(F)(F)F)c1: N
- FC(F)(F)c1cc(-c2ccco2)nc2cc(-c3ccco3)nn12: N
- O=c1[nH]ccc2c(O)cccc12: N
- O=[N+]([O-])c1cc(C(F)(F)F)cc([N+](=O)[O-])c1Oc1ccc(Cl)c(Cl)c1: Y
- Cc1nc(C(F)(F)F)nc(Sc2n[nH]c(-c3cc(Cl)cc(Cl)c3)n2)c1C: N
- Nc1nc(SCc2ccc([N+](=O)[O-])cc2)c2ncn([C@@H]3O[C@H](CO)[C@H](O)C3O)c2n1 (stereo partly specified): N
- COC(=O)C(O)[C@H]1C(C)(C)[C@@H](OC(C)=O)[C@@H]2CC3=C4CC(=O)O[C@@H](c5ccoc5)[C@]4(C)CCC3[C@@]1(C)C2=O (stereo partly specified): N
- Cc1onc(-c2c(Cl)cccc2Cl)c1C(=O)N1CCN(c2ncnc3scc(-c4ccccc4)c23)CC1: N
- CC(C)(C)c1cc(C(=O)NN)n[nH]1: N
- O=C(Nc1cc(-c2ccccc2)[nH]n1)c1ccccc1: N
- NC(Cc1ccc(Cl)cc1)C(=O)O (stereo unspecified): N
- CCCN(CCC)c1c([N+](=O)[O-])cc(C(F)(F)F)cc1[N+](=O)[O-]: N
- CNCCC(Oc1ccccc1OC)c1ccccc1 (stereo unspecified): N
